- Tested on: human lymphoblastoid TK6 cells
- measurement protocol: MultiFlow DNA Damage assay (γH2AX, p53, p-H3, polyploidy)
- Type: cell-based
- measurement setup: fold-increase over solvent control
- Procedure: Treated cells were gently resuspended and 25 µL/well was mixed thoroughly with the labeling solution. The plate was incubated for 30 min at room temperature shielded from light. The γH2AX and p53 endpoints were measured based on their median fluorescence intensity (i.e., mean channel fluorescence or MCF) relative to the DMSO solvent control. The p-H3 and polyploidy endpoints were measured based on their frequencies among all events (i.e., all 2n–4n and polyploidy (8n) DNA content). […]
readout type: MultiFlow biomarkers with responses

Worked set:
>>> df
                                   compound        value_reported
0                           Cc1ccc(O)c(N)c1  4H ɣH2AX and 24H p53
1                           Cc1cc(C)n(CO)n1   4H p53 and 4H ɣH2AX
2  Cc1c2ccccc2c(C)c2c1ccc1ccccc12 [DMBA, 7,12-dimethylbenz[a]anthracene, reference compound]        4H & 24H ɣH2AX
3                         COc1ccc(NCCO)cc1N   4H p53 and 4H ɣH2AX
4                              Nc1cccc(N)n1   4H p53 and 4H ɣH2AX

// MultiFlow biomarkers with responses lookup, compound = O=[N+]([O-])c1cc(O)ccc1NCCCO [NSACB 9, 4-[(3-hydroxypropyl)amino]-3-nitrophenol] , result: 4H and 24H ɣH2AX

----------
- Tested on: human lymphoblastoid TK6 cells
- measurement protocol: In vitro MicroFlow assay (flow cytometry-based micronucleus test)
- measurement setup: -S9; TK6 cells, 4H exposure, 24-h sampling
readout type: MicroFlow summary classification (MN induction)

Worked set:
molecule	experimental target	value reported
Cc1ccc(NCCO)c([N+](=O)[O-])c1 [NSACB 8, 2-[(4-methyl-2-nitrophenyl)amino]ethanol]	human lymphoblastoid TK6 cells	-
Cc1ccc(O)c(N)c1	human lymphoblastoid TK6 cells	+
Nc1cccc(N)n1	human lymphoblastoid TK6 cells	+
Cc1c2ccccc2c(C)c2c1ccc1ccccc12 [DMBA, 7,12-dimethylbenz[a]anthracene, reference compound]	human lymphoblastoid TK6 cells	+

Hey, quick one: what's MicroFlow summary classification (MN induction) for each of these?
1. OC[C@@H](O)[C@@H](O)[C@H](O)[C@H](O)CO [DMANN, D-mannitol, reference compound]
2. COc1cc([C@@H]2c3cc4c(cc3[C@@H](O[C@@H]3O[C@@H]5CO[C@@H](C)O[C@H]5[C@H](O)[C@H]3O)[C@H]3COC(=O)[C@H]23)OCO4)cc(OC)c1O [EPEG, Etoposide, reference compound]

Response given:
1. -
2. +

----------
- System: human lymphoblastoid TK6 cells
- measurement protocol: Integrated NAM-based test strategy (TGx-DDI + MicroFlow + MultiFlow; ToxPi integration of BMCs)
- measurement setup: from TGx-DDI, MicroFlow and MultiFlow calls
readout type: Integrated hazard conclusion

                                   molecule      value_reported
0                Nc1ccc(Cl)cc1C(=O)c1ccccc1  somewhat ambiguous
1  Cc1ccc(NCCO)c([N+](=O)[O-])c1 [NSACB 8, 2-[(4-methyl-2-nitrophenyl)amino]ethanol]  somewhat ambiguous
